Target: UniProt:Q12809
Sequence (Q12809 whole entry): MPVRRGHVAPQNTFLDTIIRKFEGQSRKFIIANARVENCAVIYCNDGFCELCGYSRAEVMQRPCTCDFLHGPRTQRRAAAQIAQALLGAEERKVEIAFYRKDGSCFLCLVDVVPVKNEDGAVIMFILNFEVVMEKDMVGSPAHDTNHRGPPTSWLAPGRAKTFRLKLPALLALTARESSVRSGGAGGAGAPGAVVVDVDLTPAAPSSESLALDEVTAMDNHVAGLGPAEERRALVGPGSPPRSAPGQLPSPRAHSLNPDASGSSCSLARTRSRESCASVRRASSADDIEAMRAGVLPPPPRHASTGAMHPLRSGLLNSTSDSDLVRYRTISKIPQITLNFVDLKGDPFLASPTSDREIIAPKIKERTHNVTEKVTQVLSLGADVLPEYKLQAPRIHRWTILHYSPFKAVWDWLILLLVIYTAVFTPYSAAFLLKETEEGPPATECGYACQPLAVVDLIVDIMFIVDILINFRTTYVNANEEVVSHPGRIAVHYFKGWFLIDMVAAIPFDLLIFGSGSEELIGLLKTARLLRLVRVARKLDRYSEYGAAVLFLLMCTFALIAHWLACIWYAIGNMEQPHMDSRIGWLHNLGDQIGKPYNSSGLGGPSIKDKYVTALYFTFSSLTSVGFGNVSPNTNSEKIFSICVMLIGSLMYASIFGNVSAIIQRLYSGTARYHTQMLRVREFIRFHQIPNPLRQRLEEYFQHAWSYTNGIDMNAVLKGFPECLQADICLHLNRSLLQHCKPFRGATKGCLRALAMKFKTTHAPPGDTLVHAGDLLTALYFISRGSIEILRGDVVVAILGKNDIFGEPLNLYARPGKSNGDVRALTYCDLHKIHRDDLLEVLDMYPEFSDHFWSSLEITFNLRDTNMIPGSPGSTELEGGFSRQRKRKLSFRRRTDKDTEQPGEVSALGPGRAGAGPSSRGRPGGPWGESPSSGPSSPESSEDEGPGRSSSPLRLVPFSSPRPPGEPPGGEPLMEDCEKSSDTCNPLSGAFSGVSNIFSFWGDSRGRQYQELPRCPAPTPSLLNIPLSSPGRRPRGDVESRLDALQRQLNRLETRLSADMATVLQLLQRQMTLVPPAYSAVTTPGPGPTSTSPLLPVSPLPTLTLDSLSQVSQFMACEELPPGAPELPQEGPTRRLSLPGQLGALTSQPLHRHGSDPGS
Test: Displacement of dofetilide from human ERG at 10 uM
Settings: probe dofetilide
measured quantity: inhibition at 10 µM

# inhibition at 10 µM measured on UniProt:Q12809 for item COCCN1CCC(c2[nH]nc(-c3ccc(Cl)cc3)c2-c2ccncc2)CC1 = 74%

# inhibition at 10 µM measured on UniProt:Q12809 for item CN1CCC(c2[nH]nc(-c3ccc(Cl)cc3)c2-c2ccncn2)CC1 = 51%

# inhibition at 10 µM measured on UniProt:Q12809 for item OCCN1CCC(c2[nH]nc(-c3ccc(Cl)cc3)c2-c2ccncn2)CC1 = 46%

# inhibition at 10 µM measured on UniProt:Q12809 for item O=C(CO)N1CCC(c2n[nH]c(-c3ccc(Cl)cc3)c2-c2ccncn2)CC1 [SD-0006] = 16%

# inhibition at 10 µM measured on UniProt:Q12809 for item OCCN1CCC(c2[nH]nc(-c3ccc(Cl)cc3)c2-c2ccncc2)CC1 = 61%

# inhibition at 10 µM measured on UniProt:Q12809 for item Clc1ccc(-c2n[nH]c(C3CCN(C4CCOC4)CC3)c2-c2ccncn2)cc1 (configuration not stated) = 35%

# inhibition at 10 µM measured on UniProt:Q12809 for item O=C(CO)N1CCC(c2[nH]nc(-c3ccc(Cl)cc3)c2-c2ccncc2)CC1 = 24%
